systemUnderTest: LftR Y28A (Listeria monocytogenes, UniProt Q8Y923 1-108, Y28A)
experimentalDetails: fluorescence polarization; FP: 28-mer OP-1 with 5' fluorescein, ex 485 nm / em 535 nm, single-site fit (Prism 5); buffer, salt, pH and temperature of FP and EMSA not given in the material
testContext: protein: recombinant; tags: C-terminal His6; chain copies: 2; label: 5' fluorescein on top strand
readout: Kd (nM)

OP-1 28-mer dsDNA (FP) (dsDNA) DNA 1: GTATTACTATATACTTGTACCTAGTAAC DNA 2: GTTACTAGGTACAAGTATATAGTAATAC ... 89.6
